Source of measurements: ChEMBL document CHEMBL1150367

# SYSTEM: Kappa-type opioid receptor (Homo sapiens)
# Sequence (P41145 whole entry): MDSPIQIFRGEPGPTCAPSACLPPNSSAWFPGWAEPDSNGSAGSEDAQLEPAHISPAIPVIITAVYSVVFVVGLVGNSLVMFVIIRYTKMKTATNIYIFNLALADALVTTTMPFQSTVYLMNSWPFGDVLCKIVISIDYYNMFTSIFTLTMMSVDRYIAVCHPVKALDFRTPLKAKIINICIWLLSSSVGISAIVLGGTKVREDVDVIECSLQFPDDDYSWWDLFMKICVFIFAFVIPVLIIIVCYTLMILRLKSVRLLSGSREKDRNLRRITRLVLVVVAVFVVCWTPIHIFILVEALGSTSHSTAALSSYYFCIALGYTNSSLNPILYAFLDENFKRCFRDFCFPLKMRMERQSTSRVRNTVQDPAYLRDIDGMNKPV
PARAMETER_MEASURED: Ki (nM)
One number for each entry, in nM.

Given the entry [3H]C([3H])([3H])Oc1cc(I)c(OC)cc1CCNCc1ccccc1OC([3H])([3H])[3H] , report its measured Ki.
288

* * *

# SYSTEM: 5-hydroxytryptamine receptor 7 (Homo sapiens, UniProt P34969)
# Sequence (P34969 whole entry): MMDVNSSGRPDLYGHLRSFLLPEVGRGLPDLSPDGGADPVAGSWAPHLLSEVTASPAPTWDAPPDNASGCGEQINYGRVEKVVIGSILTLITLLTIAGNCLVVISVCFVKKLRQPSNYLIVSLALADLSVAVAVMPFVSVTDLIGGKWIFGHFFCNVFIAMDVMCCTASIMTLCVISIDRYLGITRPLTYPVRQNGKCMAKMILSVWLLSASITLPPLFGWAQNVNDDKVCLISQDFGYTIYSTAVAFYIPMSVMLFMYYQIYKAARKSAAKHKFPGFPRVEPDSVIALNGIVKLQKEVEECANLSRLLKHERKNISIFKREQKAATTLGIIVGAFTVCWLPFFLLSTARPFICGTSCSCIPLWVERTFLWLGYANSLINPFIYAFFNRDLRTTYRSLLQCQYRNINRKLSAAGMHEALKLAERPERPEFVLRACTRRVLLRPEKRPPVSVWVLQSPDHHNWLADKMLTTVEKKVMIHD
PARAMETER_MEASURED: Ki

Query: Ki; subject: [3H]C([3H])([3H])Oc1cc(I)c(OC)cc1CCNCc1ccccc1OC([3H])([3H])[3H]
> 500 nM

* * *

# SYSTEM: Histamine H2 receptor (Homo sapiens)
PARAMETER_MEASURED: Ki

# get_value(readout='Ki', item= [3H]C([3H])([3H])Oc1cc(I)c(OC)cc1CCNCc1ccccc1OC([3H])([3H])[3H] )
> 500 nM

* * *

# SYSTEM: 5-hydroxytryptamine receptor 2B (Homo sapiens, UniProt P41595)
# Sequence (P41595 whole entry): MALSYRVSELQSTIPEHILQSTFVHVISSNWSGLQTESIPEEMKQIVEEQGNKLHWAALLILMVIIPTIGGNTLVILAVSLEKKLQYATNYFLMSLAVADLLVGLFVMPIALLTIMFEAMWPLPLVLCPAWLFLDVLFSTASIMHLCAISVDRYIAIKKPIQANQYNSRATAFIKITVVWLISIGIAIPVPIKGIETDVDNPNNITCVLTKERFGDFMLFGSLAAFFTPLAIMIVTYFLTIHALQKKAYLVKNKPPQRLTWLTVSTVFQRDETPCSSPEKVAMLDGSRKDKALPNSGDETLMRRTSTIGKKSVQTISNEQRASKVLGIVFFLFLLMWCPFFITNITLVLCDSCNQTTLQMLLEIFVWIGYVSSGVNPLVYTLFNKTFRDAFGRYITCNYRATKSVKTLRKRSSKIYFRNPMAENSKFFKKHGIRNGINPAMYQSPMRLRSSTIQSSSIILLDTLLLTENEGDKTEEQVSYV
PARAMETER_MEASURED: pKi
Answers are plain numbers, as −log10 of the molar value.

Param item = [3H]C([3H])([3H])Oc1cc(I)c(OC)cc1CCNCc1ccccc1OC([3H])([3H])[3H] ; retrieve measured pKi.
6.64

* * *

# SYSTEM: 5-hydroxytryptamine receptor 2A (Homo sapiens, UniProt P28223)
# Sequence (P28223 whole entry): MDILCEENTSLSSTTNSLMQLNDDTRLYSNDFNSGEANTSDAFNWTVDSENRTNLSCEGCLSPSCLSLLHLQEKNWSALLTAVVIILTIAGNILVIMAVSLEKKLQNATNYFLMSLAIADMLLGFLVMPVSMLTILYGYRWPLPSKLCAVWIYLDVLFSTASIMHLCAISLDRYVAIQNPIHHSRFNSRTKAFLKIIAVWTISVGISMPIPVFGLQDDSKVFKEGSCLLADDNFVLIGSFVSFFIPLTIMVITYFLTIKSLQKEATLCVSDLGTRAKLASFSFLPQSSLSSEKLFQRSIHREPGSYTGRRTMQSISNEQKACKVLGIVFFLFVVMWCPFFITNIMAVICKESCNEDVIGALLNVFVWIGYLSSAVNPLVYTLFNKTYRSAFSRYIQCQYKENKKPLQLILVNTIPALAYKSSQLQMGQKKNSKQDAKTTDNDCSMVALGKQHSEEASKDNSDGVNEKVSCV
# PROCEDURE_TEXT: Displacement of [3H]ketanserin from human 5HT2A receptor expressed in human HEK293 cells
# Format: cell-based
PARAMETER_MEASURED: pKi
One number for each entry, as −log10 of the molar value.

Fill in: pKi of CN(C)CCCSc1ccccc1NC(=O)/C=C/c1ccccc1 is ___
7.89

* * *

# SYSTEM: 5-hydroxytryptamine receptor 3A (Homo sapiens)
# Sequence (P46098 whole entry): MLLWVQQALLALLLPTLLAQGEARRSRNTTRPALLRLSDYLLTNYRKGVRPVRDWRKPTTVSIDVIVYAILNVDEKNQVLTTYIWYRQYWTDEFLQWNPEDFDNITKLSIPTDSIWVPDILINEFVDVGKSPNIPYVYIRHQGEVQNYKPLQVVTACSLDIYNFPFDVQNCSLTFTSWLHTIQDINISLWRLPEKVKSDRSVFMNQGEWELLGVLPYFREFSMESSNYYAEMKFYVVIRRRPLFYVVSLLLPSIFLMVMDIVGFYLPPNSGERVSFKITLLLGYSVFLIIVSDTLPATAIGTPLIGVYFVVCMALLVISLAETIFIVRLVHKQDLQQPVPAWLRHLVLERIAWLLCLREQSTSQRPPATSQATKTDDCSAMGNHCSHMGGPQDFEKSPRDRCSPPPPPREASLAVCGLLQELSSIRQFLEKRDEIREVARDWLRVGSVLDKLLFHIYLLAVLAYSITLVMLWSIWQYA
# PROCEDURE_TEXT: Binding affinity to 5HT3 receptor
PARAMETER_MEASURED: Ki

Quick check: Ki of [3H]C([3H])([3H])Oc1cc(I)c(OC)cc1CCNCc1ccccc1OC([3H])([3H])[3H] ?
> 500 nM

* * *

# SYSTEM: UniProt P28223
# PROCEDURE_TEXT: Displacement of [3H]INBMeO from human 5HT2A receptor expressed in human HEK293 cells
# Format: cell-based
PARAMETER_MEASURED: Ki (nM)
Answers are plain numbers, in nM.

Find the recorded Ki belonging to CN(C)CCCSc1ccccc1NC(=O)/C=C/c1ccccc1 [CINANSERIN] and report it.
22

* * *

# SYSTEM: Histamine H1 receptor (Homo sapiens, UniProt P35367)
# Sequence (P35367 whole entry): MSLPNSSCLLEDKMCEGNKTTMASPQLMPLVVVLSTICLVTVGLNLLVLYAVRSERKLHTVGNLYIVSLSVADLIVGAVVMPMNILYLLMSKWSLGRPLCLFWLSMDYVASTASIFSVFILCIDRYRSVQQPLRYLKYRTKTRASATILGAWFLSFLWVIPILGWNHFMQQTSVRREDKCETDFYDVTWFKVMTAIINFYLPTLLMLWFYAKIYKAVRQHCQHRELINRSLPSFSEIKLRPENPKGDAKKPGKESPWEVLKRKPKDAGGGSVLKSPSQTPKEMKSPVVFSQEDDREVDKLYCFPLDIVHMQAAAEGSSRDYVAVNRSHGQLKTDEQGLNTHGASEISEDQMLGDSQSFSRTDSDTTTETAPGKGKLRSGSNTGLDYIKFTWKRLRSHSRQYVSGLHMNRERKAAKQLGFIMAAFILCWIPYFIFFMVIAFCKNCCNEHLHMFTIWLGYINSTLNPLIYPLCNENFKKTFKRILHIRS
PARAMETER_MEASURED: pKi
One number for each entry, as −log10 of the molar value.

What value of pKi has been reported for the following compound? [3H]C([3H])([3H])Oc1cc(I)c(OC)cc1CCNCc1ccccc1OC([3H])([3H])[3H]
6.72

* * *

# SYSTEM: Muscarinic acetylcholine receptor M1 (Homo sapiens, UniProt P11229)
# Sequence (P11229 whole entry): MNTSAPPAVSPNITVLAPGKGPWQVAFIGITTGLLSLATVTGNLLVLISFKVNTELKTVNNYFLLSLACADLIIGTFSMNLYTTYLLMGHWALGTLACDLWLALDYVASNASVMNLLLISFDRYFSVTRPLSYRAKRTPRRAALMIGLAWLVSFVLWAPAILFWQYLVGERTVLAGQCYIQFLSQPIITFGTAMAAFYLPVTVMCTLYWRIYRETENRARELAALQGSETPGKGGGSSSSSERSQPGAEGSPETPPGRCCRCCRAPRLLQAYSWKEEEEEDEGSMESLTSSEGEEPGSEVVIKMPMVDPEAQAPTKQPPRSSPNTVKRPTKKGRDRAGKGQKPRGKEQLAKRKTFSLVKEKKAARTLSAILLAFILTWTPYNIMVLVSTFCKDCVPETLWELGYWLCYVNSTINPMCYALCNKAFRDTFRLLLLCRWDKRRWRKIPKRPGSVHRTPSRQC
pKi: −log10 of the molar value.
PARAMETER_MEASURED: pKi

Request the reported pKi associated with [3H]C([3H])([3H])Oc1cc(I)c(OC)cc1CCNCc1ccccc1OC([3H])([3H])[3H]
< 6.30

* * *

# SYSTEM: 5-hydroxytryptamine receptor 1E (Homo sapiens, UniProt P28566)
# Sequence (P28566 whole entry): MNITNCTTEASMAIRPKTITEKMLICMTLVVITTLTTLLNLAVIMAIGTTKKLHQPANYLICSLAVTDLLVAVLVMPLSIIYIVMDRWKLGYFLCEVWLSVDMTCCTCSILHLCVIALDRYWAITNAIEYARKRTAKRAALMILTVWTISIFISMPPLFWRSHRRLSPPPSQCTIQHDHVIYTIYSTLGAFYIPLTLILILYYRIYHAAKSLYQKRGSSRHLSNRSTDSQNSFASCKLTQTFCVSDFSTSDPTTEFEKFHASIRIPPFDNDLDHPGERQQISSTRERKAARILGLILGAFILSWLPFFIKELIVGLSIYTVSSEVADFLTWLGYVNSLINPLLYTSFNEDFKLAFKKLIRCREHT
pKi: −log10 of the molar value.
PARAMETER_MEASURED: pKi

Form field: reported pKi of [3H]C([3H])([3H])Oc1cc(I)c(OC)cc1CCNCc1ccccc1OC([3H])([3H])[3H]
< 6.30

* * *

# SYSTEM: 5-hydroxytryptamine receptor 2A (Homo sapiens)
# PROCEDURE_TEXT: Binding affinity to human 5HT2A receptor expressed in human HEK293 cells
# Type: cell-based
PARAMETER_MEASURED: pKd
Give bare numbers, as −log10 of the molar value.

Any idea what its pKd is? The compound is [3H]C([3H])([3H])Oc1cc(I)c(OC)cc1CCNCc1ccccc1OC([3H])([3H])[3H]
9.82

* * *

# SYSTEM: UniProt:P35462
# Sequence (P35462 whole entry): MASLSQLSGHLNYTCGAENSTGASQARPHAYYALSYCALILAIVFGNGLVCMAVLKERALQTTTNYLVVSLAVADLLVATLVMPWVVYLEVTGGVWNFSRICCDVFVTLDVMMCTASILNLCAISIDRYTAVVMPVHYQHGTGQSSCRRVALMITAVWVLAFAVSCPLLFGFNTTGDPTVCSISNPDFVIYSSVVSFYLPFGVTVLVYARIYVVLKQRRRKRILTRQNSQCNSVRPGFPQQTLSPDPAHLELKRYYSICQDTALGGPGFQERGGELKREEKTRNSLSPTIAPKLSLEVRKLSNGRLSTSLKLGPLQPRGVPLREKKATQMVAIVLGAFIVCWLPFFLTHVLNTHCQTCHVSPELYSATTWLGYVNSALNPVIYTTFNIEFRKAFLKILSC
PARAMETER_MEASURED: Ki

Would you kindly share the measured Ki for [3H]C([3H])([3H])Oc1cc(I)c(OC)cc1CCNCc1ccccc1OC([3H])([3H])[3H] ?
> 500 nM

* * *

# SYSTEM: Muscarinic acetylcholine receptor M4 (Homo sapiens)
# Sequence (P08173 whole entry): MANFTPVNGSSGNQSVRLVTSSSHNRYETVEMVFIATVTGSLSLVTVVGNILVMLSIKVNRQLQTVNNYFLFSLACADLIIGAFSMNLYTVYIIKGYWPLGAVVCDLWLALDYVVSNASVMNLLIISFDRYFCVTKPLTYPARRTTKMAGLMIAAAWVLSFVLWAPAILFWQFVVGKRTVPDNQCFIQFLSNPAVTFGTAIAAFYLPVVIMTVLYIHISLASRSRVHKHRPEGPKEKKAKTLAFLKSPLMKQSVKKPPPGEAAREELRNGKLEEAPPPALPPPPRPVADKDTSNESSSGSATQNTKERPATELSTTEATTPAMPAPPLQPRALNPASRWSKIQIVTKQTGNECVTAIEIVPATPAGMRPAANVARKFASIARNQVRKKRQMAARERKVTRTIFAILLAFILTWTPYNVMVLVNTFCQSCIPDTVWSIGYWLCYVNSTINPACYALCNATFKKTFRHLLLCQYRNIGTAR
PARAMETER_MEASURED: Ki

Entry [3H]C([3H])([3H])Oc1cc(I)c(OC)cc1CCNCc1ccccc1OC([3H])([3H])[3H] : reported Ki = ?
> 500 nM

* * *

# SYSTEM: 5-hydroxytryptamine receptor 1A (Homo sapiens)
# Sequence (P08908 whole entry): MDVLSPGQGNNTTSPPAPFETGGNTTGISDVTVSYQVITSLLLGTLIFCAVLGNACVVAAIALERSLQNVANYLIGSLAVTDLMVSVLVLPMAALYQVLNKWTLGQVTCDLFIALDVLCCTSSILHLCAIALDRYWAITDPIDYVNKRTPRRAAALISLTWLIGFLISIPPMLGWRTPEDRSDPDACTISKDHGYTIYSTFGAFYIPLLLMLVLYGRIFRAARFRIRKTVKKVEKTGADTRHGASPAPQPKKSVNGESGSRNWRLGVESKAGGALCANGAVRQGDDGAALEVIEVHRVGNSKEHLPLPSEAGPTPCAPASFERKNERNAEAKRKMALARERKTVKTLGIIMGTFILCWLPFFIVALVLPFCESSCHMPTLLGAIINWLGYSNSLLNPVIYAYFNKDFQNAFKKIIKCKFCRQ
pKi: −log10 of the molar value.
PARAMETER_MEASURED: pKi

Sample [3H]C([3H])([3H])Oc1cc(I)c(OC)cc1CCNCc1ccccc1OC([3H])([3H])[3H] — what was its pKi?
< 6.30

* * *

# SYSTEM: Delta-type opioid receptor (Homo sapiens)
# Sequence (P41143 whole entry): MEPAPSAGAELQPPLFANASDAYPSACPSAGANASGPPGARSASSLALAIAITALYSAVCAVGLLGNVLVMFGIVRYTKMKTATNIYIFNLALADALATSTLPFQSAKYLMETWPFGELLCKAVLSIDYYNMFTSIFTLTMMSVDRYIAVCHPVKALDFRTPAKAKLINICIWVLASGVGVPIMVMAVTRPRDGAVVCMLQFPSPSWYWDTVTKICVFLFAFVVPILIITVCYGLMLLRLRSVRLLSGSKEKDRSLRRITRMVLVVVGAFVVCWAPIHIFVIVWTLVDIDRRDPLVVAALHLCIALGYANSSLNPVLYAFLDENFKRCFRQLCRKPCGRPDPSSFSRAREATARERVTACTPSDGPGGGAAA
# PROCEDURE_TEXT: Binding affinity to delta opioid receptor
PARAMETER_MEASURED: Ki

Item under review: [3H]C([3H])([3H])Oc1cc(I)c(OC)cc1CCNCc1ccccc1OC([3H])([3H])[3H] . Reported Ki?
> 500 nM

* * *

# SYSTEM: 5-hydroxytryptamine receptor 1B (Homo sapiens, UniProt P28222)
# Sequence (P28222 whole entry): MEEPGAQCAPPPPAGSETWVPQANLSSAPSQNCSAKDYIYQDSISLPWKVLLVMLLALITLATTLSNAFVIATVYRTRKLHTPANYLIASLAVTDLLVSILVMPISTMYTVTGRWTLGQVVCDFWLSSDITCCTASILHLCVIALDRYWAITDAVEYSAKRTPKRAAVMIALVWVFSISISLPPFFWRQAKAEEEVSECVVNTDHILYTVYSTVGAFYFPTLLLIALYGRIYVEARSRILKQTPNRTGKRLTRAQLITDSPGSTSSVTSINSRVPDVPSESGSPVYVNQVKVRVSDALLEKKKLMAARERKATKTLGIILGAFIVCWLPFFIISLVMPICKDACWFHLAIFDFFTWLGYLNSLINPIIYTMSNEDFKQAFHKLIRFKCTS
PARAMETER_MEASURED: Ki

For [3H]C([3H])([3H])Oc1cc(I)c(OC)cc1CCNCc1ccccc1OC([3H])([3H])[3H] , what is its reported Ki?
> 500 nM

* * *

# SYSTEM: D(1B) dopamine receptor (Homo sapiens)
# Sequence (P21918 whole entry): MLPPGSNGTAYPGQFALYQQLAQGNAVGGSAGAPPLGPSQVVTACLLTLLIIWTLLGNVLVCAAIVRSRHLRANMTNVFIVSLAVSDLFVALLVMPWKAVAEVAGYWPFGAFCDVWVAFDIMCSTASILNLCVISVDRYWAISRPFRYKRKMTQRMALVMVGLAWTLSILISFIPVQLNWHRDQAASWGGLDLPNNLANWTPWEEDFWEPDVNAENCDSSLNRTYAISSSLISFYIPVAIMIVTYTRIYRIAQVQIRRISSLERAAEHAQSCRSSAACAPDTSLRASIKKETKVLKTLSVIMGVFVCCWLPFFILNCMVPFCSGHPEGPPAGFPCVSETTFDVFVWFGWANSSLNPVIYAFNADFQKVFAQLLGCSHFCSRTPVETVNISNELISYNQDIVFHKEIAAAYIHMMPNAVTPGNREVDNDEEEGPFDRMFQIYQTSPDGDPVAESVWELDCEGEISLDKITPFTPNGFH
PARAMETER_MEASURED: Ki

GET /values?readout=Ki&item= [3H]C([3H])([3H])Oc1cc(I)c(OC)cc1CCNCc1ccccc1OC([3H])([3H])[3H]
> 500 nM

* * *

# SYSTEM: 5-hydroxytryptamine receptor 2A (Homo sapiens, UniProt P28223)
# PROCEDURE_TEXT: Displacement of [3H]INBMeO from human 5HT2A receptor expressed in human A549 cells
# Type: cell-based
PARAMETER_MEASURED: Ki (nM)
One number for each entry, in nM.

If you can, please state the reported Ki value of CN(C)CCCSc1ccccc1NC(=O)/C=C/c1ccccc1 [CINANSERIN] .
24
